Here, each record is paired with measured ζ-potential data.
Assay notes: Zeta potential of lipid nanoparticles
Type: physicochemical
Test settings: Table 5; EGFP mRNA-loaded lipid nanoparticles; TxT/DSPC/chol/PEG-DMG=50/3/47/1.5 (mol%); total flow rate 3.0 mL/min
Method: The average particle size (number average value), ζ-average particle size, and polydispersity index (PdI) of the lipid nanoparticles in PBS(-) (pH 7.4), and the zeta potential in 10 mM HEPES buffer (pH 7.4) were measured using an analyzer "Zetasizer Nano ZS ZEN3600" (manufactured by Malvern) utilizing dynamic light scattering.
Answer with the number, then the unit.

These recorded examples may help you get a feel for the data.
# Compound, Measured
rows = [
    ("CCCCCCC(CCCC)CNC(=O)CCCC(=O)OCC(COC(=O)CCCC(=O)NCC(CCCC)CCCCCC)(COC(=O)CCCC(=O)NCC(CCCC)CCCCCC)NC(=O)CCN1CCCCC1 (stereo not drawn) [TxT-5-5A12β]", "-7.8 mV"),
    ("CCCCCCC(CCCCCC)COC(=O)CCCC(=O)OCC(COC(=O)CCCC(=O)OCC(CCCCCC)CCCCCC)(COC(=O)CCCC(=O)OCC(CCCCCC)CCCCCC)NC(=O)CCN1CCCCC1 [TxT-5-5E14]", "-11.6 mV"),
    ("CCCCCCCCCCN(CCCCCCCCCC)C(=O)CCC(=O)OCC(COC(=O)CCC(=O)N(CCCCCCCCCC)CCCCCCCCCC)(COC(=O)CCC(=O)N(CCCCCCCCCC)CCCCCCCCCC)NC(=O)CCN1CCCCC1 [TxT-5-4A20]", "-7.4 mV"),
    ("CCCCCCN(CCCCCC)C(=O)CCCC(=O)OCC(COC(=O)CCCC(=O)N(CCCCCC)CCCCCC)(COC(=O)CCCC(=O)N(CCCCCC)CCCCCC)NC(=O)CCN1CCCCC1 [TxT-5-5A12]", "-9.4 mV"),
]

*Q* Need ζ-potential, item CCCCCCCCN(CCCCCCCC)C(=O)CCCC(=O)OCC(COC(=O)CCCC(=O)N(CCCCCCCC)CCCCCCCC)(COC(=O)CCCC(=O)N(CCCCCCCC)CCCCCCCC)NC(=O)CCN1CCCCC1 [TxT-5-5A16]
*A* -8.4 mV

*Q* Query CCCCCCCCC(CCCCCC)CNC(=O)CCCC(=O)OCC(COC(=O)CCCC(=O)NCC(CCCCCC)CCCCCCCC)(COC(=O)CCCC(=O)NCC(CCCCCC)CCCCCCCC)NC(=O)CCN1CCCCC1 (stereo not drawn) [TxT-5-5A16β] next
*A* -8.9 mV

*Q* Query CCCCC(CC)CN(CC(CC)CCCC)C(=O)CCCC(=O)OCC(COC(=O)CCCC(=O)N(CC(CC)CCCC)CC(CC)CCCC)(COC(=O)CCCC(=O)N(CC(CC)CCCC)CC(CC)CCCC)NC(=O)CCN1CCCCC1 (centres unmarked) [TxT-5-5A16b] next
*A* -6.0 mV

*Q* Query CCCCCCCN(CCCCCCC)C(=O)CCCC(=O)OCC(COC(=O)CCCC(=O)N(CCCCCCC)CCCCCCC)(COC(=O)CCCC(=O)N(CCCCCCC)CCCCCCC)NC(=O)CCN1CCCCC1 [TxT-5-5A14] next
*A* -13.0 mV
